Source: patent US20220195015A1

List of EC50 values.
molecular target: SARS-CoV-2 RBD (wild type) (SARS-CoV-2, UniProt P0DTC2 319-539); assay: ELISA on coated RBD
Readout Type: EC50 (µg/mL)

Binder	Output Unit	Measurement
C095 (antibody, V domains shown) VH: VQLVEAGGGVVQPGRSLRLSCAASGLAFSIYGMHWVRQAPGKGLEWVAIVAQDGSKKYYADSVKGRFTISRDNSKNTLYLEMNSLRTEDTAVYYCVKEGRPSDTVVVVAFDYWGQGSLVTVSS VL: DIQLTQSPSSLSASVGDRVTITCRASQSISNYLNWYQQKPGKAPKVIIYAASSLQSGVPSRFSGSGSGTDFTLTISSLQPEDFATYYCQQSHSIPRTFGQGTKVEIK	µg/mL	0.0011
C091 (antibody, V domains shown) VH: QVQLVQSGAEVKKPGSSVKVSCKASGGTFSSYTISWVRQAPGQGLEWMGRIIPILGIANYAQKFQGRVTITADKSTSTAYMELSSLRSEDTAVYYCARDSGYSGYGSTYYMDVWGKGTTVTVSS VL: QSVLTQPPSVSGAPGQRVTISCTGSSSNIGAGYDVHWYQQLPGTAPKLLIYGNSNRPSGVPDRFSGSKSGTSASLAITGLQAEDEADYYCQSYDSSLSGSVFGTVTKVTVL	µg/mL	0.0895
